assay: Precipitation behavior on slow injection into PBS; assay type: physicochemical; parameters: key: cohesive (2); cohesive with loss of some material (1); uncontrollable injection or not cohesive (0); settings: score; 100 ul injected slowly into PBS, 27 G needle

{"columns": ["compound", "Precipitation (0-2)"],
 "data": [
  ["CC(=O)OCC(=O)N(C)c1c(I)c(C(=O)NCC(COC(C)=O)OC(C)=O)c(I)c(C(=O)NCC(COC(C)=O)OC(C)=O)c1I (stereo not drawn)", 2],
  ["COCCOCCOCCOCCOCCOCc1cc(I)cc(I)c1I", 2],
  ["CCOC(=O)COc1c(I)cc(I)cc1I [LFE02, ethyl 2,4,6-triiodophenoxyacetate]", 1],
  ["COCCOCCOCCOCCOCCOCCOCCOCCOCCOCCOCCOCCOc1c(I)cc(I)cc1I", 0],
  ["CN(C(=O)CO)c1c(I)c(C(=O)NCC(O)CO)c(I)c(C(=O)NCC(O)CO)c1I (stereo not drawn) [LFE13, iomeprol, reference compound]", 0],
  ["COCCOCCOCCOCCOCCOc1c(I)cc(I)cc1I", 2],
  ["OCCOCCOCCOc1c(I)cc(I)cc1I", 2],
  ["COCCOCCOCCOc1c(I)cc(I)cc1I", 2],
  ["CCCCC(CC)COc1c(I)cc(I)cc1I (stereo not drawn)", 1]
]}

====

assay: Radiopacity loss and homogeneity of precipitates incubated in PBS at 37° C.; format: physicochemical; design: key: non-homegeneous (score=0); homogeneous (score=1); conditions: score; C-arm X-ray
# Homogeneous radiopacity (0-1) per record follows
reported_endpoint: Homogeneous radiopacity (0-1)

{"columns": ["compound", "reported_endpoint", "readout_value"],
 "data": [
  ["COCCOCCOCCOC(=O)COc1c(I)cc(I)cc1I", "Homogeneous radiopacity (0-1)", 1],
  ["CCOC(=O)COc1c(I)cc(I)cc1I [LFE02, ethyl 2,4,6-triiodophenoxyacetate]", "Homogeneous radiopacity (0-1)", 0],
  ["CCCOC(=O)Cn1cc(I)c(=O)c(I)c1", "Homogeneous radiopacity (0-1)", 1],
  ["CCCCCCOC(=O)Cn1cc(I)c(=O)c(I)c1", "Homogeneous radiopacity (0-1)", 1],
  ["CCCCC(CC)COc1c(I)cc(I)cc1I (stereo not drawn)", "Homogeneous radiopacity (0-1)", 0],
  ["COCCOCCOCCOCCOCCOc1c(I)cc(I)cc1I", "Homogeneous radiopacity (0-1)", 1],
  ["CC(=O)OCC(=O)N(C)c1c(I)c(C(=O)NCC(COC(C)=O)OC(C)=O)c(I)c(C(=O)NCC(COC(C)=O)OC(C)=O)c1I (stereo not drawn)", "Homogeneous radiopacity (0-1)", 1],
  ["COCCOCCOCCOCc1cc(I)cc(I)c1I", "Homogeneous radiopacity (0-1)", 0],
  ["OCCOCCOCCOc1c(I)cc(I)cc1I", "Homogeneous radiopacity (0-1)", 1],
  ["CCCOC(=O)c1c(I)c(NC(C)=O)c(I)c(NC(C)=O)c1I", "Homogeneous radiopacity (0-1)", 1],
  ["CC(=O)Nc1c(I)c(NC(C)=O)c(I)c(C(=O)O)c1I [LFE23, Diatrizoic acid, reference compound]", "Homogeneous radiopacity (0-1)", 1],
  ["COCCOCCOCCOCCOCCOCCOCCOCCOCCOCCOCCOCCOc1c(I)cc(I)cc1I", "Homogeneous radiopacity (0-1)", 1],
  ["O=C(OCCOCCOCCOCCOCCO)c1cc(I)cc(I)c1I", "Homogeneous radiopacity (0-1)", 1],
  ["CCCCCCOc1c(I)cc(I)cc1I", "Homogeneous radiopacity (0-1)", 0],
  ["COCCOCCOCCOc1c(I)cc(I)cc1I", "Homogeneous radiopacity (0-1)", 0]
]}

====

assay: Radiopacity loss and homogeneity of precipitates incubated in PBS at 37° C.; assay type: physicochemical; conditions: 30 days of incubation in PBS at 37° C.
reported_endpoint: % of radiopacity compared to time zero (%)

{"columns": ["compound", "unit_of_measurement", "readout_value"],
 "data": [
  ["CC(=O)Nc1c(I)c(NC(C)=O)c(I)c(C(=O)O)c1I [LFE23, Diatrizoic acid, reference compound]", "%", 19.0],
  ["CCCCC(CC)COc1c(I)cc(I)cc1I (stereo not shown)", "%", 101.9],
  ["CCCCCCOC(=O)c1c(I)c(NC(C)=O)c(I)c(NC(C)=O)c1I", "%", 91.4],
  ["CN(C(=O)CO)c1c(I)c(C(=O)NCC(O)CO)c(I)c(C(=O)NCC(O)CO)c1I (stereo not shown) [LFE13, iomeprol, reference compound]", "%", 11.9],
  ["COCCOCCOCCOCCOCCOCCOCCOCCOCCOCCOCCOCCOc1c(I)cc(I)cc1I", "%", 29.3],
  ["CCCOC(=O)Cn1cc(I)c(=O)c(I)c1", "%", 14.5],
  ["COCCOCCOCCOC(=O)COc1c(I)cc(I)cc1I", "%", 64.7]
]}

====

test: Radiopacity loss and homogeneity of precipitates incubated in PBS at 37° C.; format: physicochemical; parameters: key: non-homegeneous (score=0); homogeneous (score=1); conditions: score; C-arm X-ray

{"columns": ["compound", "Homogeneous radiopacity (0-1)"],
 "data": [
  ["O=C(COc1c(I)cc(I)cc1I)OCCOCCOCCO [LFE10]", 1],
  ["CC(=O)OCCOCCOCCOc1c(I)cc(I)cc1I [LFE12]", 0],
  ["CN(C(=O)CO)c1c(I)c(C(=O)NCC(O)CO)c(I)c(C(=O)NCC(O)CO)c1I (centres unmarked) [LFE13, iomeprol, reference compound]", 1],
  ["COCCOCCOCCOCCOCCOCc1cc(I)cc(I)c1I [LFE19]", 1],
  ["CCCCCCOC(=O)c1c(I)c(NC(C)=O)c(I)c(NC(C)=O)c1I [LFE21]", 1]
]}
